Item-by-item account of OD值 (450nm, 参考630nm)
study target: 肺炎支原体天然抗原(购自Microbix) (Mycoplasma pneumoniae)
experiment description: indirect ELISA on coated antigen (2 ug/ml), antibody 0.15 ng/ml
Report the figure in OD without appending any unit label.

Guide cases for OD值 (450nm, 参考630nm), answers given:
binder	measurement unit	obs value
Anti-MP-11F5mut5 (antibody, mouse IgG1, kappa, V domains shown) VH: QVQLQQSGPELVKPGALVKISCKASGYTFTSFDINWVKQRPGQGLEWIGYIYPGDGSTKYNEKFKGKATLTADKSSSTAYMQFSSLTSENSAVYFCTRKGGWGAGHSAMDYWGQGTSVTVSS VL: DIQMTQTTSSLSASLGDRVTISCRASQAISNYLNWYQQRPDGTVKLLIYYTSRKNSGAPSRFSGSGSGTDYSLTISNIDQEDIATYFCQQGYTTPYTFGGGTKLEIKR	OD	0.163
Anti-MP-11F5mut6 (antibody, mouse IgG1, kappa, V domains shown) VH: QVQLQQSGPELVKPGALVKISCKASGYTFTSFDINWVKQRPGQGLEWIGYIYPGDGSTKYNEKFKGKATLTADKSSSTAYMQFSSLTSEDSAVYFCTRKGGWGAGHSAMDYWGQGTSVTVSS VL: DIQMTQTTSSLSASLGDRVTISCRASQAISNYINWYQQRPDGTVKLLIYYTSRKNSGAPSRFSGSGSGTDYSLTISNLDQEDIATYFCQQGYTTPYTFGGGTKLEIKR	OD	0.174
Anti-MP-11F5mut8 (antibody, mouse IgG1, kappa, V domains shown) VH: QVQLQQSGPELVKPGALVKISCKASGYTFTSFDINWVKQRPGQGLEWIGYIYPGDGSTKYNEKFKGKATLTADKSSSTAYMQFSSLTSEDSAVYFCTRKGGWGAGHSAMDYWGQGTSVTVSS VL: DIQMTQTTSSLSASLGDRVTISCRASQAISNYINWYQQRPDGTVKLLIYYTSRKNSGAPSRFSGSGSGTDYSLTISNIDQEDIATYFCQQGYTTPYTFGGGTKLEIKR	OD	0.489

[ask] Using the record for Anti-MP-11F5mut1 (antibody, mouse IgG1, kappa, V domains shown) VH: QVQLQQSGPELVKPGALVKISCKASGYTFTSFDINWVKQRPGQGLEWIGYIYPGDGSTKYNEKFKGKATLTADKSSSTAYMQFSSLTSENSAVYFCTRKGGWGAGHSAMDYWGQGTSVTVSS VL: DIQMTQTTSSLSASLGDRVTISCRASQAIGNYLNWYQQRPDGTVKLLIYYTSRKNSGAPSRFSGSGSGTDYSITISNLDQEDIATYFCQQGYTTPYTFGGGTKLEIKR , report its OD值 (450nm, 参考630nm).
[reply] 0.156

[ask] Using the record for Anti-MP-11F5mut7 (antibody, mouse IgG1, kappa, V domains shown) VH: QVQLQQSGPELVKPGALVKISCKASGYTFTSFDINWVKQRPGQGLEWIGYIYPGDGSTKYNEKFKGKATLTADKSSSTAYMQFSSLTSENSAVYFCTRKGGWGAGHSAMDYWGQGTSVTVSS VL: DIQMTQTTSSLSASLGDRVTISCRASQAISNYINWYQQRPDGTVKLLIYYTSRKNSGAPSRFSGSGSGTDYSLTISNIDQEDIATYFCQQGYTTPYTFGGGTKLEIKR , report its OD值 (450nm, 参考630nm).
[reply] 0.365

[ask] Using the record for Anti-MP-11F5mut4 (antibody, mouse IgG1, kappa, V domains shown) VH: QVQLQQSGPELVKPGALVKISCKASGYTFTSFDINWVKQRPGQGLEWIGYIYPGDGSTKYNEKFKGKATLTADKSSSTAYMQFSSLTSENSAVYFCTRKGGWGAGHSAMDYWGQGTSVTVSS VL: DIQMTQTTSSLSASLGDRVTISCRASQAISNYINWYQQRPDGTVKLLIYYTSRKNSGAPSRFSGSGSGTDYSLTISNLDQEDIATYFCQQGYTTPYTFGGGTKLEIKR , report its OD值 (450nm, 参考630nm).
[reply] 0.374

The reported measurements were obtained from patent CN116693678A.
